# System: Trypanosoma brucei trypomastigotes
# PROTOCOL: Antitrypanosomal Alamar Blue assay
# Type: cell-based
# PARTICULARS: Trypanosoma brucei; Table 4; read-out: T. brucei IC50
Listed compounds paired with reported IC50

COMPOUND | IC50
C[C@@H]1O[C@@H](O[C@@H]2[C@@H](O)[C@H](O)[C@@H](CO)O[C@H]2c2c(O)cc(O)c3c(=O)cc(-c4ccc(O)c(O)c4)oc23)[C@H](O)[C@H](O)[C@H]1O | > 10 µM

Query string: # lookup: IC50 of O=c1cc(-c2ccccc2)oc2cc(O[C@@H]3O[C@H](CO)[C@@H](O)[C@H](O)[C@H]3O)cc(O)c12 [Compound 3, chrysin-7-O-β-D-glucopyranoside]
Result string: > 10 µM

Query string: Same question, N=C(N)c1ccc(OCCCCCOc2ccc(C(=N)N)cc2)cc1 [Pentamidine, reference compound] this time
Result string: 0.001 µM
